Assignment: determine reported TGI for the given compounds.
# Test system: OVCAR-8 ovarian
# TEST_PROTOCOL: NCI tumour cell line growth inhibition, 48 h

The examples below pair each entry with its known result.
{"columns": ["COMPOUND", "TGI"],
 "data": [
  ["O=C(Nc1ccc(Cl)cc1F)c1cc(F)ccc1O", "> 70.8 µM"],
  ["O=c1c2cc(Br)ccc2nc(-c2ccccc2)n1NCC1(O)OCC(O)C(O)C1O (stereo unspecified)", "> 100 µM"],
  ["N#C/C(=C\\c1ccc(F)cc1)c1nc2ccccc2c(=O)[nH]1", "> 100 µM"]
]}

For each entry beneath this line, provide reported TGI.
1. O=[N+]([O-])c1cccc(/C=C/c2ccccn2)c1
2. CCCCC1C(=O)N(c2ccc(S(=O)(=O)Nc3ccccn3)cc2)N(c2ccc(O)c(C(=O)O)c2)C1=O (stereo unspecified)
3. CN1CCC(C(=O)NNc2ccccc2)CC1

## Output
1: > 100 µM; 2: > 100 µM; 3: > 100 µM
